Attribute: IC50
target: UniProt Q13547; assay: Inhibition of recombinant full-length C-terminal FLAG-fused/His-tagged human HDAC1 expressed in baculovirus infected Sf9 insect cells measured after 40 mins by HDAC-Glo1/2 luminescent assay
Sequence (Q13547 whole entry, the tested form may be a part): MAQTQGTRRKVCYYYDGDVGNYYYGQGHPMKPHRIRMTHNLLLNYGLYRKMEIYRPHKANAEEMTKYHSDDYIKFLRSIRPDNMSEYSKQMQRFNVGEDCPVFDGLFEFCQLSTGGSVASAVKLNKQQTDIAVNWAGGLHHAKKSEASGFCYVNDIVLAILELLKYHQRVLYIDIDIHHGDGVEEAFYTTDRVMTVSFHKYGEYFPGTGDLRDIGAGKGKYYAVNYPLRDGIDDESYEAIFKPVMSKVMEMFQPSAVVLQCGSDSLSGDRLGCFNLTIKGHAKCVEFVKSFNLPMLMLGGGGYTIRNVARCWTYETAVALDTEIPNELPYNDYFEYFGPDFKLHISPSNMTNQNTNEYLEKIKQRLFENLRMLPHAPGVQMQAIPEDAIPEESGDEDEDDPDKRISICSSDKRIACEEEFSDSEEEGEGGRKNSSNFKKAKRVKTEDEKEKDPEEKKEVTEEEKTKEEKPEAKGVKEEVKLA
assay_endpoint: IC50

molecule="CN1CCCC1c1cn(Cc2ccc(C(=O)NO)cc2)c2ccccc12 (racemic)" reported="316 nM"
molecule=Cn1cncc1-c1cn(Cc2ccc(C(=O)NO)cc2)c2ccccc12 reported="631 nM"
molecule=CN(C)Cc1cn(Cc2ccc(C(=O)NO)cc2)c2ccccc12 reported="1000 nM"
molecule=O=C(NO)c1ccc(Cn2c3c(c4ccccc42)COCC3)cc1 reported="1580 nM"
molecule=CN1CCc2c(n(Cc3ccc(C(=O)NO)cc3)c3ccccc23)C1 reported="3160 nM"
molecule=Cc1c(C)n(Cc2ccc(C(=O)NO)cc2)c2ccccc12 reported="2510 nM"
molecule=CN(C)Cc1nn(Cc2ccc(C(=O)NO)cc2)c2ccccc12 reported="1260 nM"
molecule=O=C(NO)c1ccc(Cn2cc(CN3CCCC3)c3ccccc32)cc1 reported="794 nM"

Where these numbers come from: ChEMBL document CHEMBL4385610
